Please go through the items and note down their pEC50.
# assayed.system: soluble guanylate cyclase (human GUCYA3 and GUCYB3) overexpressed in CHO cells (Homo sapiens (Human), UniProt Q02108+Q02153)
# Sequence (Q02108 whole entry partner): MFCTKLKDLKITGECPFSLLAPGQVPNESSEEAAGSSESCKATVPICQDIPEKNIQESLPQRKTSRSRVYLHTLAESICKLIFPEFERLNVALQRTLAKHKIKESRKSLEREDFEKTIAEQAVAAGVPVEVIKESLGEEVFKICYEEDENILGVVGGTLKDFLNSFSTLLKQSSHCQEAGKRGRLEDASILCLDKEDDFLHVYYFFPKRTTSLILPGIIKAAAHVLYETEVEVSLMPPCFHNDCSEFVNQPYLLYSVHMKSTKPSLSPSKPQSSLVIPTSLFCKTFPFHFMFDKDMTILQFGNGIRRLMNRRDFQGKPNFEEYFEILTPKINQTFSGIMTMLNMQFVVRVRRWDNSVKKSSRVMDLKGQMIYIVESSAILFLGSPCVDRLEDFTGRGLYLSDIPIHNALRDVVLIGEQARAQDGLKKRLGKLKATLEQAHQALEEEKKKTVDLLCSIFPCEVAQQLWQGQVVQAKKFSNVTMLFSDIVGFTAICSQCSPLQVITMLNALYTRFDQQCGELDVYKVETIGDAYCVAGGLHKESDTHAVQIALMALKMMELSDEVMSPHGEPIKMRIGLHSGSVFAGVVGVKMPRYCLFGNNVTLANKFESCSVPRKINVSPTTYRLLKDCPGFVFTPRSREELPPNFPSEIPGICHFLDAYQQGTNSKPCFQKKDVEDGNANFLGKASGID
# Sequence (Q02153 whole entry): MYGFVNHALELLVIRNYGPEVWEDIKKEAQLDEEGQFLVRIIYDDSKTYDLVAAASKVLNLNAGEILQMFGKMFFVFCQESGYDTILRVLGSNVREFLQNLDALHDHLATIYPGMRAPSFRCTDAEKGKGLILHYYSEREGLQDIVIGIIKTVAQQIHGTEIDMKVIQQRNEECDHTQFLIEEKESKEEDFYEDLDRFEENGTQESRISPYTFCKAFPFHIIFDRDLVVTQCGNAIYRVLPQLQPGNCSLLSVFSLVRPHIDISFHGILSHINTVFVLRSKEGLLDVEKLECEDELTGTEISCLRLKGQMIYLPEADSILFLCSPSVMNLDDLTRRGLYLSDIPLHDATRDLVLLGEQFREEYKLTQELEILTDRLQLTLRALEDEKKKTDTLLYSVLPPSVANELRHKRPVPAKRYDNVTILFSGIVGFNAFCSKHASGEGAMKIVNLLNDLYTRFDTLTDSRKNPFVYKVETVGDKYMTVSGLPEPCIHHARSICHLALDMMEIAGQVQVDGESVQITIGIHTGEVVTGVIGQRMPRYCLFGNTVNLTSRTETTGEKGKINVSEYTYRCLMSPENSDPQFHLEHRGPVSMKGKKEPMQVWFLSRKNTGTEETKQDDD
# assay.overview: CHO cellular assay (cGMP production, Cisbio cGMP HTRF kit)
# Format: cell-based
# condition.label: CHO GUCY clone 8E10, cGMP production, assay buffer with 1 mM IBMX and 20 uM ODQ, 1 h room temperature; minimum quantification limit 0.5 nM (listed 0.5 nM means ≤0.5 nM); read-out: EC50
pEC50: −log10 of the molar value.

# compound, pEC50
data = [
    ("CCc1cc(CN2CC(C)c3cccc(-c4cccc(-n5ncc(C(=O)O)c5C(F)(F)F)n4)c32)ccc1C1CCN(C(=O)C2CC2)CC1 (single isomer, unassigned; (+)) [Example 19a]", "≥ 9.30"),
    ("CCc1c(C(=O)O)cnn1-c1cccc(-c2cccc3c2C(Nc2ccc(C4CCN(C(=O)C5CC5)CC4)cc2C)CC3)n1 (single isomer, unassigned; (+)) [Example 10a]", "≥ 9.30"),
]

Now look at this entry.
Lab note: Cc1cc(C2CCN(C(=O)[C@H](C)O)CC2)ccc1NC1CCc2cccc(-c3cccc(-n4ncc(C(=O)O)c4C)n3)c21 (single isomer, unassigned; (+)) [Example 47a] gave pEC50 of ≥ 9.30
